Data provenance: patent US7015306B2

Experiment: In vitro serum stability assay (HPLC) of In-111 labeled peptide
Type: in vitro ADME, human
Conditions: human serum, 37EC, 4 hours
Where a SMILES comes first, the peptide text is derived from it. [ ]: non-standard residue; d: D form. The star is where a group is joined. ξ: configuration not given here. DTPA = O=C(O)CN(CCN(CC(=O)O)CC(=O)O)CCN(CC(=O)O)CC(=O)*; ξGly(4-Pip(1-amidino)) = N=C(N)N1CCC(C(N)C(=O)O)CC1; Cha = N[C@@H](CC1CCCCC1)C(=O)O; Tle = CC(C)(C)[C@H](N)C(=O)O; Ac6c = NC1(C(=O)O)CCCCC1
Measured % of peptide at 4 hours after incubation at 37EC, Serum, listed per entry for reference.
assay metric: % of peptide at 4 hours after incubation at 37EC, Serum (%)

compound: CC(C)C[C@H](NC(=O)C1(NC(=O)[C@H](Cc2ccc(O)cc2)NC(=O)[C@@H]2CCCN2C(=O)[C@H](CCCNC(=N)N)NC(=O)C(NC(=O)[C@@H]2CCCN2C(=O)[C@@H](CCCCN)NC(=O)CN(CCN(CCN(CC(=O)O)CC(=O)O)CC(=O)O)CC(=O)O)C2CCN(C(=N)N)CC2)CCCCC1)C(=O)O (stereo partly drawn) ({DTPA}-[dK]P[ξGly(4-Pip(1-amidino))]RPY[Ac6c]L-OH)
data value: 89.9

compound: CC(C)(C)[C@H](NC(=O)[C@H](Cc1ccc(O)cc1)NC(=O)[C@@H]1CCCN1C(=O)[C@H](CCCNC(=N)N)NC(=O)C(NC(=O)[C@@H]1CCCN1C(=O)[C@@H](CCCCN)NC(=O)CN(CCN(CCN(CC(=O)O)CC(=O)O)CC(=O)O)CC(=O)O)C1CCN(C(=N)N)CC1)C(=O)N[C@@H](CC1CCCCC1)C(=O)O (some centres unmarked) ({DTPA}-[dK]P[ξGly(4-Pip(1-amidino))]RPY[Tle][Cha]-OH)
data value: 81.2

----------
Measured % of peptide at 4 hours after incubation at 37EC, Serum, listed per entry for reference.
Assay: In vitro serum stability assay (HPLC) of In-111 labeled peptide
Type: in vitro ADME, human
Settings: human serum, 37EC, 4 hours
*1 amine or outer side, *2 acyl side, *3 side chain or, on linkers, in order; H or OH if unused. Where a SMILES comes first, the peptide text is derived from it. [ ]: non-standard residue; d: D form. The star is where a group is joined. ξ: configuration not given here. Gly(1-amidinopiperidin-4-yl) = N=C(N)N1CCC([C@H](N)C(=O)O)CC1; DTPA = O=C(O)CN(CCN(CC(=O)O)CC(=O)O)CCN(CC(=O)O)CC(=O)*; ξGly(4-Pip(1-amidino)) = N=C(N)N1CCC(C(N)C(=O)O)CC1; X2 = NC[C@H]1CC[C@H](C[C@H](N[*:1])C(=O)[*:2])CC1; ξGly(piperidin-4-yl) = NC(C(=O)O)C1CCNCC1; tBuAla = CC(C)(C)C[C@H](N)C(=O)O; Cha = N[C@@H](CC1CCCCC1)C(=O)O; Tle = CC(C)(C)[C@H](N)C(=O)O; dPip = O=C(O)[C@H]1CCCCN1; Aze = O=C(O)[C@@H]1CCN1
assay metric: % of peptide at 4 hours after incubation at 37EC, Serum (%)

molecule: CC(C)C[C@H](NC(=O)[C@@H](NC(=O)[C@H](Cc1ccc(O)cc1)NC(=O)[C@@H]1CCCN1C(=O)[C@H](CCCNC(=N)N)NC(=O)C(NC(=O)[C@@H]1CCCN1C(=O)[C@H](CCCCN)NC(=O)[C@H](CC(N)=O)NC(=O)[C@H](CCC(=O)O)NC(=O)[C@@H](Cc1ccc(O)cc1)NC(=O)CN(CCN(CCN(CC(=O)O)CC(=O)O)CC(=O)O)CC(=O)O)C1CCN(C(=N)N)CC1)C(C)(C)C)C(=O)O (stereo partly drawn) [Compound XIII] ({DTPA}-[dY]ENKP[ξGly(4-Pip(1-amidino))]RPY[Tle]L-OH)
reading unit: %
data value: 94.9
//
molecule: CC(C)C[C@H](NC(=O)[C@@H](NC(=O)[C@H](Cc1ccc(O)cc1)NC(=O)[C@@H]1CCCN1C(=O)[C@H](CCCNC(=N)N)NC(=O)C(NC(=O)[C@@H]1CCCN1C(=O)C(NC(=O)CN(CCN(CCN(CC(=O)O)CC(=O)O)CC(=O)O)CC(=O)O)C1CCNCC1)C1CCN(C(=N)N)CC1)C(C)(C)C)C(=O)O (stereo partly drawn) [Compound XI] ({DTPA}-[ξGly(piperidin-4-yl)]P[ξGly(4-Pip(1-amidino))]RPY[Tle]L-OH)
reading unit: %
data value: 95.9
//
molecule: CC(C)C[C@H](NC(=O)[C@@H](NC(=O)[C@H](Cc1ccc(O)cc1)NC(=O)[C@@H]1CCCN1C(=O)[C@H](CCCNC(=N)N)NC(=O)[C@@H](NC(=O)[C@@H]1CCCN1C(=O)[C@H](C[C@H]1CC[C@H](CN)CC1)NC(=O)CN(CCN(CCN(CC(=O)O)CC(=O)O)CC(=O)O)CC(=O)O)C1CCN(C(=N)N)CC1)C(C)(C)C)C(=O)O [Compound XII] ({DTPA}-[X2]P[Gly(1-amidinopiperidin-4-yl)]RPY[Tle]L-OH)
reading unit: %
data value: 94.8
//
molecule: CC(C)C[C@H](NC(=O)[C@@H](NC(=O)[C@H](Cc1ccc(O)cc1)NC(=O)[C@@H]1CCCN1C(=O)[C@H](CCCNC(=N)N)NC(=O)C(NC(=O)[C@@H]1CCN1C(=O)[C@@H](CCCCN)NC(=O)CN(CCN(CCN(CC(=O)O)CC(=O)O)CC(=O)O)CC(=O)O)C1CCN(C(=N)N)CC1)C(C)(C)C)C(=O)O (stereo partly drawn) ({DTPA}-[dK][Aze][ξGly(4-Pip(1-amidino))]RPY[Tle]L-OH)
reading unit: %
data value: 79.5
//
molecule: CC(C)(C)[C@H](NC(=O)[C@H](Cc1ccc(O)cc1)NC(=O)[C@@H]1CCCN1C(=O)[C@H](CCCNC(=N)N)NC(=O)C(NC(=O)[C@@H]1CCCN1C(=O)[C@H](CCCCN)NC(=O)[C@H](CC(N)=O)NC(=O)[C@H](CCC(=O)O)NC(=O)[C@@H](Cc1ccc(O)cc1)NC(=O)CN(CCN(CCN(CC(=O)O)CC(=O)O)CC(=O)O)CC(=O)O)C1CCN(C(=N)N)CC1)C(=O)N[C@@H](CC1CCCCC1)C(=O)O (stereo partly shown) [Compound XIV] ({DTPA}-[dY]ENKP[ξGly(4-Pip(1-amidino))]RPY[Tle][Cha]-OH)
reading unit: %
data value: 93.9
//
molecule: CC(C)C[C@H](NC(=O)[C@@H](NC(=O)[C@H](Cc1ccc(O)cc1)NC(=O)[C@H]1CCCCN1C(=O)[C@H](CCCNC(=N)N)NC(=O)C(NC(=O)[C@@H]1CCCN1C(=O)[C@@H](CCCCN)NC(=O)CN(CCN(CCN(CC(=O)O)CC(=O)O)CC(=O)O)CC(=O)O)C1CCN(C(=N)N)CC1)C(C)(C)C)C(=O)O (stereo partly drawn) ({DTPA}-[dK]P[ξGly(4-Pip(1-amidino))]R[dPip]Y[Tle]L-OH)
reading unit: %
data value: 96.2
//
molecule: CC(C)(C)C[C@H](NC(=O)[C@@H](NC(=O)[C@H](Cc1ccc(O)cc1)NC(=O)[C@@H]1CCCN1C(=O)[C@H](CCCNC(=N)N)NC(=O)C(NC(=O)[C@@H]1CCCN1C(=O)[C@H](CCCCN)NC(=O)[C@H](CC(N)=O)NC(=O)[C@H](CCC(=O)O)NC(=O)[C@@H](Cc1ccc(O)cc1)NC(=O)CN(CCN(CCN(CC(=O)O)CC(=O)O)CC(=O)O)CC(=O)O)C1CCN(C(=N)N)CC1)C(C)(C)C)C(=O)O (stereo partly shown) [Compound XV] ({DTPA}-[dY]ENKP[ξGly(4-Pip(1-amidino))]RPY[Tle][tBuAla]-OH)
reading unit: %
data value: 98.9
